src = patent US20230279131A1

Biological target: T1, mouse IL-2Rγ expressed on cells (MC/9) (mouse) (UniProt P34902)
T1 sequence (looked up): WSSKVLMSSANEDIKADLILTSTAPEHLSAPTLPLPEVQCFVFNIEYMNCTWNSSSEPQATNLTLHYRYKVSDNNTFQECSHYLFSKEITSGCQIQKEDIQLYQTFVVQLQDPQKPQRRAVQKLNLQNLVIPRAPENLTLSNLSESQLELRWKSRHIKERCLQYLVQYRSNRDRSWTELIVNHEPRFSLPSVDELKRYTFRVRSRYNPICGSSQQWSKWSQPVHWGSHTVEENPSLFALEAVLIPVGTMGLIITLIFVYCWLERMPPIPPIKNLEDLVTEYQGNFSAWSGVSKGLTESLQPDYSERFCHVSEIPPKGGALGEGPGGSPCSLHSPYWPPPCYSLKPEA
Experiment: flow cytometry on MC/9 cells (endogenous mouse IL-2Rg), antibody 10 ug/ml
observation type: Raw MFI (MFI)
Write down the numeric answer in MFI and omit the unit.

stdin: Recorded Raw MFI of H4H12857P (antibody, human IgG4 S228P, kappa, V domains shown) VH: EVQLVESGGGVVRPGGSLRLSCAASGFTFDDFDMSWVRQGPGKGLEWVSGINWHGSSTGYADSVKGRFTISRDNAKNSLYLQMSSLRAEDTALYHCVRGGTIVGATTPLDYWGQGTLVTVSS VL: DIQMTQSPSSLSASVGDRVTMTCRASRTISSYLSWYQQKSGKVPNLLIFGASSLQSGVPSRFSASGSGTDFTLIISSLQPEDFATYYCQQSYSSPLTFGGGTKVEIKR , please.
stdout: 198

stdin: Need Raw MFI of H4H12874P (antibody, human IgG4 S228P, kappa, V domains shown) VH: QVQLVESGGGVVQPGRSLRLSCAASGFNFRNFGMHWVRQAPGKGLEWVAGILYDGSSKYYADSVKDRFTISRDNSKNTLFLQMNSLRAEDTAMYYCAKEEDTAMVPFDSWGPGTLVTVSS VL: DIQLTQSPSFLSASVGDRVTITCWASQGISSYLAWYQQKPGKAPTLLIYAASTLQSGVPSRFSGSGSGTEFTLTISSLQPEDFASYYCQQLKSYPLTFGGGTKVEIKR , thanks.
stdout: 202

stdin: Recorded Raw MFI of H4H12899P (antibody, human IgG4 S228P, kappa, V domains shown) VH: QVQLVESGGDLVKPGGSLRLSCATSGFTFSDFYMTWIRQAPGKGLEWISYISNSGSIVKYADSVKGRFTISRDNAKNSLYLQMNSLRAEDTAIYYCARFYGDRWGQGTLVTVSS VL: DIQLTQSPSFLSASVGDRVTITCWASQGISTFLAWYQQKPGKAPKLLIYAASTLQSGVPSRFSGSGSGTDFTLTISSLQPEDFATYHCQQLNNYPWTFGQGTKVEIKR , please.
stdout: 167

stdin: Which Raw MFI is listed for H4H12858P (antibody, human IgG4 S228P, kappa, V domains shown) VH: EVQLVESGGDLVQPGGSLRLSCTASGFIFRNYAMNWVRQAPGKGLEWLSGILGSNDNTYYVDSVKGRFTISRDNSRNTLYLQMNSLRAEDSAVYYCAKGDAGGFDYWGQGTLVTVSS VL: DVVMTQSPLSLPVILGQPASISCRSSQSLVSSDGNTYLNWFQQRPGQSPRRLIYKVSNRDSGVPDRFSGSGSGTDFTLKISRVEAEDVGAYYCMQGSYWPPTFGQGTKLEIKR ?
stdout: 199
